# target or test system: SHP2 (Homo sapiens (Human), UniProt Q06124)
# Sequence (Q06124 whole entry): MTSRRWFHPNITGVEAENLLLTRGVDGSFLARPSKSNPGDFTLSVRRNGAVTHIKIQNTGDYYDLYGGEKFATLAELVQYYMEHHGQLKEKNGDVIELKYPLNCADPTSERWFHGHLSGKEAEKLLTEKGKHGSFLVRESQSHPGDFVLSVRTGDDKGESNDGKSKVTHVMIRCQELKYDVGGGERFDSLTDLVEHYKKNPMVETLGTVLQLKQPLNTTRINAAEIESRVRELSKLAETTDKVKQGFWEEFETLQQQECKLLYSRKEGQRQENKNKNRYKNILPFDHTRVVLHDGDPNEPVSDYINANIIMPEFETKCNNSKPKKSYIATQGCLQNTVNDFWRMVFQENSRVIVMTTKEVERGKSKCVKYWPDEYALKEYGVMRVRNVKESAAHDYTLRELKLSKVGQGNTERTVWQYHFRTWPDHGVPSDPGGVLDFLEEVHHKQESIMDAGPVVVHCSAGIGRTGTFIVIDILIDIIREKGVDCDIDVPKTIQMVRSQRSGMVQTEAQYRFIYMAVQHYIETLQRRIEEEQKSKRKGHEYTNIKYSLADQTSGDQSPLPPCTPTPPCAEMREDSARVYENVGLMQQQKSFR
# method notes: SHP2 Allosteric Inhibition Assay (DiFMUP prompt fluorescence)
# assay context: 0.25 nM SHP2 activated with 0.5 μM peptide IRS1_pY1172(dPEG8)pY1222; substrate DiFMUP 100 μM; 25° C.
pIC50: −log10 of the molar value. Where a name gives a salt, the structure may show the parent alone.
experimental endpoint: pIC50

As a guide, the following entries are already answered.
- compound: "CC1(C)CCN(c2cnc3c(N4CCCc5ncccc54)n[nH]c3n2)CC1 [Compound 141]"
  experimental value: "≤ 5.00"
- compound: "N[C@@H]1COCC12CCN(c1cnc3c(N4CCCc5ncccc54)n[nH]c3n1)CC2 [Compound 214]"
  experimental value: "> 6.00"
- compound: "c1ccc(CC2CCN(c3cnc4c(N5CCCc6ncccc65)n[nH]c4n3)C2)cc1 (stereo not shown) [Compound 146]"
  experimental value: "≤ 5.00"
- compound: "Cc1nnc(-c2c(Cl)ccc3c2CCCN3c2n[nH]c3nc(N4CCC5(CC4)CO[C@@H](C)[C@H]5N)cnc23)o1 [Compound 429]"
  experimental value: "> 6.00"

Please look at the items below and tell me pIC50 for each one, in order.
1. CC1CCN(c2n[nH]c3nc(N4CCC(C)(CN)CC4)cnc23)c2ccc(C(N)=O)cc21 (stereo not shown) [Compound 112, formate]
2. C[C@@H]1OCC2(CCN(c3cnc4c(N5CCN(CC(=O)N(C)C)c6cc(C#N)ccc65)n[nH]c4n3)CC2)[C@@H]1N [Compound 453]

Key:
> 6.00
> 6.00

List the reported pIC50 of each compound below.
1. CNC(=O)c1ccc2c(n1)CCCN2c1n[nH]c2nc(N3CCC4(CC3)CO[C@@H](C)[C@H]4N)cnc12 [Compound 282]
2. C[C@@H]1CCN(c2n[nH]c3nc(N4CCC5(CC4)CO[C@@H](C)[C@H]5N)cnc23)c2ccc(-c3noc(=O)[nH]3)nc21 (relative stereo) [Compound 450]
3. COC(=O)N1CCN(c2n[nH]c3nc(N4CCC5(CC4)CO[C@@H](C)[C@H]5N)cnc23)c2ccccc21 [Compound 391]

Key:
1. > 6.00
2. > 6.00
3. > 6.00

I would be grateful if you could provide pIC50 for each of the following entries.
1. C[C@@H]1OCC2(CCN(c3cnc4c(N5CC[C@H](C)c6nc(C(=O)NCc7cccnc7)ccc65)n[nH]c4n3)CC2)[C@@H]1N [Compound 445]
2. C[C@H]1Cc2ccccc2N1c1n[nH]c2nc(N3CCC(C)(CN)CC3)cnc12 [Compound 134]
3. C[C@@H]1OCC2(CCN(c3cnc4c(N5CC(=O)Nc6ncncc65)n[nH]c4n3)CC2)[C@@H]1N [Compound 322]
4. Cc1cnc(-c2ccc3c(n2)CCCN3c2n[nH]c3nc(N4CCC5(CC4)CO[C@@H](C)[C@H]5N)cnc23)s1 [Compound 382]

Key:
1. > 6.00
2. > 6.00
3. 5.00 to 6.00
4. > 6.00
